Details: 363.15 K; 101.33 kPa; Liquid; Vibrating tube method
MEASUREMENT LABEL: mass density (kg/m3)

MOLECULE	MEASUREMENT LABEL	TEST RESULT
CCn1cc[n+](C)c1.O=S(=O)([O-])O [1-ethyl-3-methylimidazolium hydrogen sulfate]	mass density	1326.68
CCCCCCCCOS(=O)(=O)[O-].CCn1cc[n+](C)c1 [1-ethyl-3-methylimidazolium octyl sulfate]	mass density	1053.49
CCCCCCOS(=O)(=O)[O-].CC[n+]1ccn(C)c1 [3-ethyl-1-methyl-1H-imidazolium hexyl sulfate]	mass density	1088.17
CCn1cc[n+](C)c1.COS(=O)(=O)[O-] [1-ethyl-3-methylimidazolium methylsulfate]	mass density	1242.8
CCCCOS(=O)(=O)[O-].CC[n+]1ccn(C)c1 [3-ethyl-1-methylimidazolium butyl sulfate]	mass density	1133.54

---

Conditions: 345.15 K; 101.33 kPa; Liquid; Vibrating tube method
MEASUREMENT LABEL: mass density (kg/m3)

COMPOUND	UNIT OF MEASURE	TEST RESULT
CCn1cc[n+](C)c1.O=S(=O)([O-])O [1-ethyl-3-methylimidazolium hydrogen sulfate]	kg/m3	1337.34
CCn1cc[n+](C)c1.COS(=O)(=O)[O-] [1-ethyl-3-methylimidazolium methylsulfate]	kg/m3	1254.5
CCCCOS(=O)(=O)[O-].CC[n+]1ccn(C)c1 [3-ethyl-1-methylimidazolium butyl sulfate]	kg/m3	1145.07
CCCCCCOS(=O)(=O)[O-].CC[n+]1ccn(C)c1 [3-ethyl-1-methyl-1H-imidazolium hexyl sulfate]	kg/m3	1099.57
CCCCCCCCOS(=O)(=O)[O-].CCn1cc[n+](C)c1 [1-ethyl-3-methylimidazolium octyl sulfate]	kg/m3	1064.87

---

Conditions: 327.15 K; 101.33 kPa; Liquid; Vibrating tube method
MEASUREMENT LABEL: mass density (kg/m3)

MOLECULE	mass density, kg/m3
CCn1cc[n+](C)c1.COS(=O)(=O)[O-] [1-ethyl-3-methylimidazolium methylsulfate]	1266.38
CCCCCCOS(=O)(=O)[O-].CC[n+]1ccn(C)c1 [3-ethyl-1-methyl-1H-imidazolium hexyl sulfate]	1111.16
CCCCOS(=O)(=O)[O-].CC[n+]1ccn(C)c1 [3-ethyl-1-methylimidazolium butyl sulfate]	1156.78
CCCCCCCCOS(=O)(=O)[O-].CCn1cc[n+](C)c1 [1-ethyl-3-methylimidazolium octyl sulfate]	1076.48
CCn1cc[n+](C)c1.O=S(=O)([O-])O [1-ethyl-3-methylimidazolium hydrogen sulfate]	1348.27

---

Details: 322.15 K; 101.33 kPa; Liquid; Vibrating tube method
MEASUREMENT LABEL: mass density (kg/m3)

MOLECULE	TEST RESULT
CCCCOS(=O)(=O)[O-].CC[n+]1ccn(C)c1 [3-ethyl-1-methylimidazolium butyl sulfate]	1160.07
CCCCCCCCOS(=O)(=O)[O-].CCn1cc[n+](C)c1 [1-ethyl-3-methylimidazolium octyl sulfate]	1079.75
CCn1cc[n+](C)c1.COS(=O)(=O)[O-] [1-ethyl-3-methylimidazolium methylsulfate]	1269.71
CCCCCCOS(=O)(=O)[O-].CC[n+]1ccn(C)c1 [3-ethyl-1-methyl-1H-imidazolium hexyl sulfate]	1114.42
CCn1cc[n+](C)c1.O=S(=O)([O-])O [1-ethyl-3-methylimidazolium hydrogen sulfate]	1351.34

These data points were gathered from the NIST ThermoML archive (doi:10.1021/je200434a).
